In this section, each of the compounds is paired with its reported fold changes relative to vehicle control.
molecular target: HeLa cell extract proteins (Homo sapiens); construct: endogenous in cells; host or cells: HeLa cell extract; assay type: binding; conditions: protein EEF1B2; HeLa
Sequence (P24534 whole entry): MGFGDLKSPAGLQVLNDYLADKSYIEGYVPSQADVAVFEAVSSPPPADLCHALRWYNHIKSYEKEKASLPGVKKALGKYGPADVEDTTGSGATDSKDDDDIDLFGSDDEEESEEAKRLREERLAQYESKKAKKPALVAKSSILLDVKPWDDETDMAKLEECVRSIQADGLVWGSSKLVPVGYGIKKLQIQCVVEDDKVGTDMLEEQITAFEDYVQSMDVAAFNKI
Output: the number by itself.

Worked set:
NCCOCCOCC(=O)Nc1nc2ncc(CNc3ccc(C(=O)NC(CCC(=O)O)C(=O)O)cc3)nc2c(=O)[nH]1 (stereo not drawn) [compound 6]
1.07
CCCCCCOc1ccc(Cc2cnc(N)nc2N)cc1 [compound 1]
1.03

Query :: Please look at this compound and report its fold changes relative to vehicle control: Nc1nc2cccc(-c3ccccc3)c2n1Cc1ccc(Cl)c(Cl)c1 [compound 3]
Result :: 1.02

Query :: Please look at this compound and report its fold changes relative to vehicle control: CCCCCCOc1cccc(Cc2cnc(N)nc2N)c1 [compound 2]
Result :: 1.63

Query :: Please look at this compound and report its fold changes relative to vehicle control: NCCCNc1ccc(C(=O)NC(CCC(=O)O)C(=O)O)cc1 (stereo not drawn) [compound 7]
Result :: 0.87

Query :: Please look at this compound and report its fold changes relative to vehicle control: Nc1nc2c(c(=O)[nH]1)N(C=O)C(CNc1ccc(C(=O)N[C@@H](CCC(=O)O)C(=O)O)cc1)CN2 (stereo partly drawn) [LEU, leucovorin]
Result :: 0.84
